assayedTarget: Human complement C1s enzyme (Homo sapiens)
Construct: purified from human serum, Complement Technology, Inc; purchased Complement Technology, Inc; host or cells: human serum
Sequence (P09871 438-688 limits assumed): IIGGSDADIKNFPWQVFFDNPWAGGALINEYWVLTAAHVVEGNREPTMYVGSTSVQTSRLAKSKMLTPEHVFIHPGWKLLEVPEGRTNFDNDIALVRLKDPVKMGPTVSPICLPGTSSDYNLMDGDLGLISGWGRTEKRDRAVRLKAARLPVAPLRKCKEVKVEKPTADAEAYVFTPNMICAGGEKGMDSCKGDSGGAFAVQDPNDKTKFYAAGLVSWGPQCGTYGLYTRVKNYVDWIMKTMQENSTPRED
Sequence (P09871 16-437 partner limits assumed): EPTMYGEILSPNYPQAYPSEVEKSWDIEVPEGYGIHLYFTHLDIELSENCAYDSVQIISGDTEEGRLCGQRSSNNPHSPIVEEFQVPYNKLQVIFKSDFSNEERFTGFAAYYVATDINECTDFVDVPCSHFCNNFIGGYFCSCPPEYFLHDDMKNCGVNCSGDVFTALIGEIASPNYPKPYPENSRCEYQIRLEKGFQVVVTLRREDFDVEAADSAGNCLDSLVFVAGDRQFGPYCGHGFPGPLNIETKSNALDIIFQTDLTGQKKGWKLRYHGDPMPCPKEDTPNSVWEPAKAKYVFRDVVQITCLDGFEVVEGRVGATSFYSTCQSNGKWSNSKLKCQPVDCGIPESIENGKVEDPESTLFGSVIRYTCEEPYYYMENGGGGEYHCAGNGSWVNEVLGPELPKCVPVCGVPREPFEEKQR
assayProtocol: Human C1s Enzyme Assay
Format: biochemical
protocolConditions: human C1s 1.16 nM, 5 min preincubation, substrate Z-L-Lys-SBzl 100 μM, A405; read-out: C1s Protease Activity
pIC50: −log10 of the molar value.
This listing pairs compounds with measured pIC50.

Query: pIC50; subject: CC(CCOc1ccccc1)C(=O)NCC(=O)N1CC2(C[C@H]1C(=O)NCc1cc(C(=N)N)cs1)OCCO2 (stereo partly drawn) [Compound 88] > 7.00

----------
assayedTarget: Human complement C1s enzyme (Homo sapiens)
Construct: purified from human serum, Complement Technology, Inc; purchased Complement Technology, Inc; host or cells: human serum
Sequence (P09871 438-688 limits assumed): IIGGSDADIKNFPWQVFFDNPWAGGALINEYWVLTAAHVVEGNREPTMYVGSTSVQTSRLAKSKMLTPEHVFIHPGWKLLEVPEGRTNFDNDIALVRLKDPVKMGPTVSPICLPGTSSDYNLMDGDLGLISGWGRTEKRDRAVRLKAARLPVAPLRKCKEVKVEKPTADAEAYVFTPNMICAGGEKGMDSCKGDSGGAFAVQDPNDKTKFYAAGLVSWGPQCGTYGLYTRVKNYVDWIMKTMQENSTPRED
Sequence (P09871 16-437 partner limits assumed): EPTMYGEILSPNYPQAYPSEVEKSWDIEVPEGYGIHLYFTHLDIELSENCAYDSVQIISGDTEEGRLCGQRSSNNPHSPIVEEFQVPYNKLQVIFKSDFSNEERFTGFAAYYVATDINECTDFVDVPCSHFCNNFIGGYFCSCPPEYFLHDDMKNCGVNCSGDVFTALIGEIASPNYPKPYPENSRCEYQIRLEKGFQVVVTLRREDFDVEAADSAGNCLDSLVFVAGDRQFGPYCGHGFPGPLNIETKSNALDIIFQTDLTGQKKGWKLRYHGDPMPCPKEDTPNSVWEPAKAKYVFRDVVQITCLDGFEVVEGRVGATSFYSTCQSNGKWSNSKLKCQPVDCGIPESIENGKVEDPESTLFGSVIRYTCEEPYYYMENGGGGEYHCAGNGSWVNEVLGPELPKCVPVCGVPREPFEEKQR
assayProtocol: Human C1s Enzyme Assay
Format: biochemical
protocolConditions: human C1s 1.16 nM, 5 min preincubation, substrate Z-L-Lys-SBzl 100 μM, A405; read-out: C1s Protease Activity
pIC50: −log10 of the molar value.
This listing pairs molecules with measured pIC50.

Here's what some known entries look like.
| cpdSmiles | observedResult |
| --- | --- |
| C[C@@H](NC(=O)[C@@H]1C[C@]2(C)C[C@@H]2N1C(=O)CNC(=O)CCCOc1ccccc1)c1cc(C(=N)N)cs1 | > 7.00 |
| COC[C@@]12C[C@@H]1N(C(=O)CNC(=O)c1ccc(Oc3ccccc3)cc1)[C@H](C(=O)NCc1cc(C(=N)N)cs1)C2 | > 7.00 |
| N=C(N)c1csc([C@H](NC(=O)[C@@H]2CC3(CN2C(=O)CNC(=O)CCCOc2ccccc2)OCCO3)C2CC2)c1 | < 6.00 |
| CC(C)O[C@@H]1C[C@@H](C(=O)NCc2cc(C(=N)N)cs2)N(C(=O)CNC(=O)c2ccc(Oc3ccccc3)cc2)C1 | > 7.00 |

Query: pIC50; subject: C[C@@]12C[C@@H]1N(C(=O)CNC(=O)c1ccc(Oc3ccccc3)cc1)[C@H](C(=O)NCc1cc(-c3noc(=O)[nH]3)cs1)C2 < 6.00

Query: pIC50; subject: CC(=O)NCCOC[C@@]12C[C@@H]1N(C(=O)CNC(=O)c1ccc(Oc3ccccc3)cc1)[C@H](C(=O)N[C@H](C)c1cc(C(=N)N)cs1)C2 > 7.00

----------
assayedTarget: Human complement C1s enzyme (Homo sapiens, UniProt P09871)
Construct: purified from human serum, Complement Technology, Inc; purchased Complement Technology, Inc; host or cells: human serum
Sequence (P09871 438-688 limits assumed): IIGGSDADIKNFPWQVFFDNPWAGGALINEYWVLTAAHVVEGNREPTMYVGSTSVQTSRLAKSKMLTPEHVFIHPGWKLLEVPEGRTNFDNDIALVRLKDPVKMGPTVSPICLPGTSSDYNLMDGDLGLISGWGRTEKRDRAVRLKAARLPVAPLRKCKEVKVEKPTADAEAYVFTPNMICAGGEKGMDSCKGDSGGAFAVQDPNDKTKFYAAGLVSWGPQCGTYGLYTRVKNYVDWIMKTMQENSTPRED
Sequence (P09871 16-437 partner limits assumed): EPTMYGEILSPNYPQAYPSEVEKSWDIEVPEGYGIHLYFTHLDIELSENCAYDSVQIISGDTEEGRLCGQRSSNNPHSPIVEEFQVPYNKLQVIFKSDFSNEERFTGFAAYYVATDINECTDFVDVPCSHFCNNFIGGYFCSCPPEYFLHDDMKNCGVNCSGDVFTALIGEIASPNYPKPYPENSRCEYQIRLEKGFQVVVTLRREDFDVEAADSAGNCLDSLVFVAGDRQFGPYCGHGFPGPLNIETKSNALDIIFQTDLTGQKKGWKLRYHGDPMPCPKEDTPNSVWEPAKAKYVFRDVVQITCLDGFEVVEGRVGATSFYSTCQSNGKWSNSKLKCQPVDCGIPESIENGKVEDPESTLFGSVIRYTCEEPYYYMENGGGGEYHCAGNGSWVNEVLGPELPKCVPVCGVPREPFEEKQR
assayProtocol: Human C1s Enzyme Assay
Type: biochemical
protocolConditions: human C1s 1.16 nM, 5 min preincubation, substrate Z-L-Lys-SBzl 100 μM, A405; read-out: C1s Protease Activity
pIC50: −log10 of the molar value.
property: pIC50

Here's what some known entries look like.
| compound | observedResult |
| --- | --- |
| C[C@@]12C[C@@H]1N(C(=O)CNC(=O)c1ccc(Oc3cccnc3)cc1)[C@H](C(=O)NCc1cc(C(=N)N)cs1)C2 [Compound 94] | > 7.00 |
| CO[C@@H]1C[C@@H](C(=O)N[C@H](C)c2cc(C(=N)N)cs2)N(C(=O)CNC(=O)c2ccc(Oc3ccccc3)cc2)C1 [Compound 185] | > 7.00 |
| CC(C)C[C@H](NC(=O)[C@@H]1CC2(CN1C(=O)CNC(=O)CCCOc1ccccc1)OCCO2)c1cc(C(=N)N)cs1 [Compound 221] | < 6.00 |
| C[C@@H](NC(=O)[C@@H]1CC2(CCCC2)CN1C(=O)CNC(=O)CCCOc1ccccc1)c1cc(C(=N)N)cs1 [Compound 114] | > 7.00 |
| C[C@@]12C[C@@H]1N(C(=O)CNC(=O)CCCOc1ccccc1)[C@H](C(=O)NCc1cc(C(=N)N)c(C(F)(F)F)s1)C2 [Compound 251] | < 6.00 |

Query: pIC50; subject: C[C@@]12C[C@@H]1N(C(=O)CNC(=O)c1ccc(Oc3ccccc3)cc1)[C@H](C(=O)NCc1cc(/C(N)=N/S(N)(=O)=O)cs1)C2 [Compound 205] < 6.00

Query: pIC50; subject: C[C@@]12C[C@@H]1N(C(=O)CNC(=O)c1ccc(Oc3ccccc3)cc1)[C@H](C(=O)NC1(c3cc(C(=N)N)cs3)CC1)C2 [Compound 41] > 7.00

----------
assayedTarget: Human complement C1s enzyme (Homo sapiens, UniProt P09871)
Construct: purified from human serum, Complement Technology, Inc; purchased Complement Technology, Inc; host or cells: human serum
Sequence (P09871 438-688 limits assumed): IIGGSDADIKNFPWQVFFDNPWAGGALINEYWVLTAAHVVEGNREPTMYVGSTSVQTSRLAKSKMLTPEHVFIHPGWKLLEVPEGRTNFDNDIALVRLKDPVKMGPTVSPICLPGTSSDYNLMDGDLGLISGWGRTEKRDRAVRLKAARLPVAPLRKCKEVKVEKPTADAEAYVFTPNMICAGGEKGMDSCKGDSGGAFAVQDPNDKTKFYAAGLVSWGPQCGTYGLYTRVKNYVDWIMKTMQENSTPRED
Sequence (P09871 16-437 partner limits assumed): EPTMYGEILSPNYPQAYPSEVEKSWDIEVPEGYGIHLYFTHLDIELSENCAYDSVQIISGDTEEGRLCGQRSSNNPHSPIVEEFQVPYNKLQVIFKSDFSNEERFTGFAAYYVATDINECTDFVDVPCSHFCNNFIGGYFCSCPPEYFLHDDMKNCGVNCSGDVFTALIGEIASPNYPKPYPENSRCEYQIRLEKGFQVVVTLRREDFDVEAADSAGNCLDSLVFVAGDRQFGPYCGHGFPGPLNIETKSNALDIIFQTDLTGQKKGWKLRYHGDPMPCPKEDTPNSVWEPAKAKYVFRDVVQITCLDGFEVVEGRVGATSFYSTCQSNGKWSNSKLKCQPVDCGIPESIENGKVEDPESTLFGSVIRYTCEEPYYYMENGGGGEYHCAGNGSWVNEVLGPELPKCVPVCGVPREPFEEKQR
assayProtocol: Human C1s Enzyme Assay
Type: biochemical
protocolConditions: human C1s 1.16 nM, 5 min preincubation, substrate Z-L-Lys-SBzl 100 μM, A405; read-out: C1s Protease Activity
This listing pairs compounds with measured IC50.

Here's what some known entries look like.
| compound | assayedTarget | IC50 |
| --- | --- | --- |
| CCCC(COc1ccccc1)CC(=O)NCC(=O)N1CC2(C[C@H]1C(=O)NCc1cc(C(=N)N)cs1)OCCO2 (stereo partly shown) | Human complement C1s enzyme (Homo sapiens, UniProt P09871) | < 100 nM |
| N=C(N)c1csc(CNC(=O)[C@@H]2C[C@]3(CN2C(=O)CNC(=O)c2ccc(Oc4ccccc4)cc2)CC3(F)F)c1 | Human complement C1s enzyme (Homo sapiens, UniProt P09871) | < 100 nM |
| COC[C@@]1(F)C[C@@H](C(=O)N[C@H](C)c2cc(C(=N)N)cs2)N(C(=O)CNC(=O)c2ccc(Oc3ccccc3)cc2)C1 | Human complement C1s enzyme (Homo sapiens, UniProt P09871) | < 100 nM |
| C[C@@]12C[C@@H]1N(C(=O)CNC(=O)c1ccc(Oc3ccccc3)cc1)[C@H](C(=O)NCc1cc(/C(N)=N/NS(=O)(=O)c3ccccc3)cs1)C2 | Human complement C1s enzyme (Homo sapiens, UniProt P09871) | > 1000 nM |

Query: IC50; subject: N=C(N)c1csc(CNC(=O)[C@@H]2CC3(COC3)CN2C(=O)CNC(=O)c2ccc(Oc3ccccc3)cc2)c1 < 100 nM

Query: IC50; subject: CC(C)(C)c1ccc(OCCCC(=O)NCC(=O)N2[C@H]3C[C@@]3(C)C[C@H]2C(=O)NCc2cc(C(=N)N)cs2)cc1 < 100 nM

Query: IC50; subject: COC[C@@H]1C[C@@H](C(=O)N[C@H](C)c2cc(C(=N)N)cs2)N(C(=O)CNC(=O)c2ccc(Oc3ccccc3)cc2)C1 < 100 nM

Query: IC50; subject: N=C(N)c1csc(CNC(=O)[C@@H]2C[C@@H](c3ccccc3)CN2C(=O)CNC(=O)CCCOc2ccccc2)c1 < 100 nM

Query: IC50; subject: COc1ccc(CNC(=O)[C@@H]2C[C@]3(C)C[C@@H]3N2C(=O)CNC(=O)c2ccc(Oc3ccccc3)cc2)cc1 > 1000 nM

Query: IC50; subject: COC[C@@]12C[C@@H]1N(C(=O)CNC(=O)CCCOc1ccccc1)[C@H](C(=O)NCc1cc(C(=N)N)cs1)C2 < 100 nM
